- System tested: T1, WD40 domain of Cdh1 from Saccharomyces cerevisiae (aa 241–550), for anisotropy (S. cerevisiae, UniProt P53197 241-550)
- T1 chain: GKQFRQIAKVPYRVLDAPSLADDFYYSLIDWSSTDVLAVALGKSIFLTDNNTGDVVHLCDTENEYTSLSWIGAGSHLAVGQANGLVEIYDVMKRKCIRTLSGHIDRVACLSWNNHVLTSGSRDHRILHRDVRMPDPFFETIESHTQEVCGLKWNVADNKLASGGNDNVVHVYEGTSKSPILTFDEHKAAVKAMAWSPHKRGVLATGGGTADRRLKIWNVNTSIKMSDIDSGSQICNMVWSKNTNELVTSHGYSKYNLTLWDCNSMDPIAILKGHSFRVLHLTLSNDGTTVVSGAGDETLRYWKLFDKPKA
- Test name: FP; + unlabeled Hsl1 KEN mutant peptide (100 uM)
Where no end group is shown, it is not given here.
Metric name: Kd (µM)
Answer format: numeric, µM implied, no suffix.

Kindly note the recorded Kd for EQKPKRAALSDITNSFNKMNK-Cy5 [Cy5-labeled Hsl1 D box peptide] , which is 2.9

Sourced from paper PMC8764033
